- System: Fibroblast
- test_name: Multiplex assay against human fibroblast
- Type: toxicity, cell-based
- settings: 12 h, 1 µM, compound concentration 1 uM, replicate 1
endpoint_name: Total Cell Count

Completed entries (count: 8):
Ask: # returns recorded Total Cell Count (system: Fibroblast) for CCC(=O)O[C@]1(C(=O)SCF)[C@H](C)C[C@H]2[C@@H]3C[C@H](F)C4=CC(=O)C=C[C@]4(C)[C@@]3(F)[C@@H](O)C[C@@]21C [FLUTICASONE PROPIONATE]
Reply: 76

Ask: # returns recorded Total Cell Count (system: Fibroblast) for `Nc1nc2c(c(N3CCNCC3)n1)CCC1=C2[C@@H]2CCCC[C@@H]2O1`
Reply: 182

Ask: # returns recorded Total Cell Count (system: Fibroblast) for Cc1nc(Cc2cccc(C(F)(F)F)c2)sc1-c1ccc(C(N)=O)nc1 [TP-024n]
Reply: 125

Ask: # returns recorded Total Cell Count (system: Fibroblast) for `CCCn1c(=O)c2[nH]c(C34CC5CC(CC3C5)C4)nc2n(CCC)c1=O`
Reply: 98

Ask: # returns recorded Total Cell Count (system: Fibroblast) for `Nc1ccc(C(=O)Nc2cccc(-c3nc(N4CCOCC4)c4oc5ncccc5c4n3)c2)cn1`
Reply: 134

Ask: # returns recorded Total Cell Count (system: Fibroblast) for `CC(=O)c1cc(-c2cc(C(=O)NC3CC3)ccc2C)c2ncccn12`
Reply: 96

Ask: # returns recorded Total Cell Count (system: Fibroblast) for CN(C)C/C=C/C(=O)Nc1cc2c(Nc3ccc(F)c(Cl)c3)ncnc2cc1O[C@H]1CCOC1.O=C(O)/C=C\C(=O)O.O=C(O)/C=C\C(=O)O [AFATINIB DIMALEATE]
Reply: 234

Ask: # returns recorded Total Cell Count (system: Fibroblast) for `Cl.Cl.Nc1ncnc2c1c(-c1cccc(OCc3ccccc3)c1)cn2[C@H]1C[C@@H](CN2CCC2)C1`
Reply: 109

For each entry beneath this line, provide reported Total Cell Count.
1. Cl.Cl.NC1(c2ccc(-c3nc4ccn5c(=O)[nH]nc5c4cc3-c3ccccc3)cc2)CCC1
2. COc1ccc(NS(=O)(=O)c2sc3ccc(Cl)cc3c2C)cc1N1CCNCC1.Cl
3. CCc1cc2c(cc1CC)CC(NC[C@H](O)c1ccc(O)c3[nH]c(=O)ccc13)C2
4. COc1cc2c(NC3CCN(C(C)C)CC3)nc(N3CCC(F)(F)CC3)nc2cc1OCCCN1CCCC1

Reply:
[437, 125, 187, 127]

* * *

- Tested on: HEK-293T
- test_name: Multiplex assay against HEK293T
- Format: toxicity, cell-based
- settings: human, 48 h, 10 µM, compound concentration 10 uM, replicate 2
# binning rule on Total Cell Count: class A (below 200), class B (200 to below 300), class C (300 or more)

Use these answered entries as a reference point.
Ask: Each molecule maps to one class by Total Cell Count. Which class for `CCc1cc2c(cc1CC)CC(NC[C@H](O)c1ccc(O)c3[nH]c(=O)ccc13)C2` ?
Reply: class B

Ask: Each molecule maps to one class by Total Cell Count. Which class for `CNc1oc(-c2cccc3ccccc23)nc1C#N` ?
Reply: class C

Ask: Each molecule maps to one class by Total Cell Count. Which class for CC(C)Oc1ccc(C(=O)N[C@H](CNC(=O)CN(C)C)Cc2ccc(-c3cn4cccc([C@H](C)O)c4n3)cc2)cc1Cl [GSK-923295A] ?
Reply: class A

Ask: Each molecule maps to one class by Total Cell Count. Which class for `COc1cc2c(NC3CCN(C(C)C)CC3)nc(N3CCC(F)(F)CC3)nc2cc1OCCCN1CCCC1` ?
Reply: class B

Ask: Each molecule maps to one class by Total Cell Count. Which class for CCC(=O)O[C@]1(C(=O)SCF)[C@H](C)C[C@H]2[C@@H]3C[C@H](F)C4=CC(=O)C=C[C@]4(C)[C@@]3(F)[C@@H](O)C[C@@]21C [FLUTICASONE PROPIONATE] ?
Reply: class C

Ask: Each molecule maps to one class by Total Cell Count. Which class for `Nc1nc2c(c(N3CCNCC3)n1)CCC1=C2[C@@H]2CCCC[C@@H]2O1` ?
Reply: class B

---
Ask: Each molecule maps to one class by Total Cell Count. Which class for `Cc1cc2c(cc1N1C(=O)c3cccc4c(CCCO)ccc(c34)C1=O)n(C)c(=O)n2C` ?
Reply: class C

Ask: Each molecule maps to one class by Total Cell Count. Which class for `O=C(O)c1ccc2cc(-c3ccc(O)c(C45CC6CC(CC(C6)C4)C5)c3)ccc2c1` ?
Reply: class B

Ask: Each molecule maps to one class by Total Cell Count. Which class for `CC(C)N1CCC(C)(C)c2cc(C#Cc3ccc(C(=O)O)cc3)ccc21` ?
Reply: class C

Ask: Each molecule maps to one class by Total Cell Count. Which class for `COc1cc(N2CCC(N(C)C)CC2)ccc1Nc1ncc(Cl)c(Nc2ccccc2P(C)(C)=O)n1` ?
Reply: class A

Ask: Each molecule maps to one class by Total Cell Count. Which class for `COc1ccc(NS(=O)(=O)c2sc3ccc(Cl)cc3c2C)cc1N1CCNCC1.Cl` ?
Reply: class A

Ask: Each molecule maps to one class by Total Cell Count. Which class for `CC(=O)c1cc(-c2cc(C(=O)NC3CC3)ccc2C)c2ncccn12` ?
Reply: class B

Ask: Each molecule maps to one class by Total Cell Count. Which class for CCn1c(-c2nonc2N)nc2cnc(Oc3cccc(NC(=O)c4ccc(OCCN5CCOCC5)cc4)c3)cc21 [GSK-269962A] ?
Reply: class A

* * *

- Test system: Fibroblast
- test_name: Incucyte cell viability with human fibroblast; also: filed as whole numbers so only -1 and 0 and 1 occur
- Type: toxicity, cell-based
- settings: 0 h, 10 µM, compound concentration 10 uM, replicate number 1, timepoint 0 hours
endpoint_name: Growth Rate
Answers are plain numbers.

Ask: # returns recorded Growth Rate (system: Fibroblast) for CCn1c(-c2nonc2N)nc2cnc(Oc3cccc(NC(=O)c4ccc(OCCN5CCOCC5)cc4)c3)cc21 [GSK-269962A]
Reply: 0

Ask: # returns recorded Growth Rate (system: Fibroblast) for CN(C)C/C=C/C(=O)Nc1cc2c(Nc3ccc(F)c(Cl)c3)ncnc2cc1O[C@H]1CCOC1.O=C(O)/C=C\C(=O)O.O=C(O)/C=C\C(=O)O [AFATINIB DIMALEATE]
Reply: 0

Ask: # returns recorded Growth Rate (system: Fibroblast) for `CCNC(=O)c1cc2c(N3CCOC[C@@H]3C)ccnc2[nH]1`
Reply: 0

Ask: # returns recorded Growth Rate (system: Fibroblast) for `CCCOc1ccc([C@@H]2[C@@H](C(=O)O)[C@H](c3ccc4c(c3)OCO4)CN2CC(=O)Nc2c(CC)cccc2CC)cc1`
Reply: 0

Ask: # returns recorded Growth Rate (system: Fibroblast) for `COc1ccc(NS(=O)(=O)c2sc3ccc(Cl)cc3c2C)cc1N1CCNCC1.Cl`
Reply: 1

For each entry beneath this line, provide reported Growth Rate.
1. Cc1cc(C(=O)N2Cc3cnn(C)c3Nc3ccccc32)ccc1CNC(=O)N1CCC[C@H]1C(=S)N1CCCN(C)CC1
2. CC(C)NCC(O)c1ccc(N)c(C#N)c1 (stereo not drawn)
3. Cc1cc(SCc2sc(-c3ccc(C(F)(F)F)c(F)c3)nc2C)ccc1OCC(=O)O

Reply:
0
0
0

For each entry beneath this line, provide reported Growth Rate.
1. C[C@@H](NCCc1ccc(O)cc1)[C@@H](O)c1ccc(O)cc1.Cl (relative stereo)
2. CN1CC(=O)N=C1NC(=O)Nc1cccc(Cl)c1 [FENOBAM ANHYDROUS]
3. O=C(O)CC1CCC2(CC1)CCN(c1cc(OC(F)(F)F)ccc1Cl)CC2
4. CCCc1c(-c2ccc(O)cc2)nn(-c2ccc(O)cc2)c1-c1ccc(O)cc1
5. CCN1CCN(Cc2ccc(NC(=O)c3ccc(C)c(Oc4ccnc5[nH]ccc45)c3)cc2C(F)(F)F)CC1.Cl.Cl.Cl.O
6. C[C@H](c1ccnc(Nc2nc3ccc(-c4cc(N(C)C)ncn4)cc3[nH]2)c1)N1CCN(C(=O)CC(F)(F)F)CC1

Reply:
1: 0; 2: 0; 3: 0; 4: 0; 5: 0; 6: 1

For each entry beneath this line, provide reported Growth Rate.
1. Oc1ccc(-c2nc3cc(O)cc(Br)c3o2)cc1
2. CCCCc1nc(Cl)c(CO)n1Cc1ccc(-c2ccccc2-c2nn[nH]n2)cc1
3. CN(C)CC[C@@H](c1ccc(Cl)cc1)c1ccccn1.O=C(O)/C=C\C(=O)O [DEXCHLORPHENIRAMINE MALEATE]
4. CCOC(=O)c1cc(C#N)c(N2CCC(C(=O)NS(=O)(=O)Cc3ccccc3)CC2)nc1C

Reply:
1: 0; 2: 0; 3: 0; 4: 0

For each entry beneath this line, provide reported Growth Rate.
1. Cc1cc(C)cc(C(=O)N(C)[C@H](Cc2ccc(-c3ccccc3)cc2)C(=O)N[C@@H](Cc2c[nH]c3ccccc23)C(=O)O)c1
2. CCc1cc2c(cc1CC)CC(NC[C@H](O)c1ccc(O)c3[nH]c(=O)ccc13)C2
3. CCC(=O)N[C@@H]1CC[C@H](C(=O)N(C)c2ccc(-c3nc4ccccc4o3)cc2)C1
4. C[C@H](CO)Nc1nc(SCc2cccc(Cl)c2F)nc2[nH]c(=O)sc12
5. NS(=O)(=O)c1cc(NC(=O)C2(c3ccccc3Cl)CC2)ccc1Oc1cccc(Cl)c1

Reply:
[0, 1, 0, 0, 0]
